# target or system: T1, soluble human insulin receptor-immunoglobulin heavy chain chimera (sIR-Fc; Bass et al., 1996) (human, UniProt P06213 28-956, limits assumed)
# T1 construct: extracellular domain; also called soluble IR (Bass construct); not shown: immunoglobulin heavy chain constant domains
# measurement notes: phage ELISA
Overview of reported Ratio over Background across a group of binders:
attribute measured: Ratio over Background

{"columns": ["binder", "recorded value"],
 "data": [
  ["SACQFDCHENFYDWFARQVSGGAAYG [H2CA-4-H8-IGFR]", 1],
  ["YSCGDGFYSLLSDLLGGQFRC [20E2B-4-H12-IGFR]", 0.8],
  ["QAVQPGFHEEFYDWFVRQVSTGVGGG [H2CA-4-H4-IGFR]", 1]
]}

Numbers sourced from patent US20070265189A1.
